Data provenance is the supplement of paper PMC10567573.

Assay: protein stability index of a GFP-peptide fusion (GPS, HEK-293T) (PSI 1-6); higher = more stable;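 also: 24-mer peptide tiles fused after GFP, lentivirally expressed, FACS-sorted into six equal bins by GFP/DsRed ratio, decoded by Illumina sequencing, PSI is the read-weighted mean bin number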
Test parameters: treatment: MLN4924 1 uM, 8 h; c terminus: a fixed tail appended
Outcome measure: protein stability index
Give only the figure.

Recorded results for 6 sequences are shown here.
• EEEGGEEEEEAAMYEEEMEREEIT [FAM50A] = 5.71
• GHVLLTDSEFSMQEPMVPAKLGTQ [PPFIA4] = 3.94
• PSGTPTNLRRHVPDLESGSESGAD [DLC1] = 5.46
• SPLCLIPMVTSPREEQQLLASTSK [KCTD13] = 4.37
• TPYVRWNYVAKNFAQALGCVLYAC [SOAT2] = 2.41
• LTYGEVRNSKASAYCLDQGAEDGD [GALNT9] = 5.3

Okay, now this sequence:
## Task Identify measured protein stability index corresponding to MDSKDVEVSSIQVRRKPQHGVCSQ [SERPINB9P1]
## Result 4.64
